Target: T1, NCYM (Homo sapiens, UniProt P40205 1-109)
T1 sequence: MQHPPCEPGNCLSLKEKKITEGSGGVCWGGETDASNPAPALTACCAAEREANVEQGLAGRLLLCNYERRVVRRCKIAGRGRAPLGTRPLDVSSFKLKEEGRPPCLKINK
Assay: BLI; BLI: 25 C, NCYM 25-400 nM, buffer not stated (selection buffer: 40 mM HEPES pH 7.5, 125 mM NaCl, 5 mM KCl, 1 mM MgCl2, 0.01% Tween 20); AFM: 20 mM Tris-HCl pH 7.4, 10 mM MgCl2, 1 mM EDTA, 25 C, 2 h, NCYM 100 nM, aptamer frame 10 nM; SAXS: 293 K
Conditions: protein: recombinant; tags: N-terminal GST tag cleaved, 8 vector residues left (117 aa; stated for SAXS); label: 5'-biotin (BLI); stem-loops predicted by RNAfold; dimer in solution (SAXS)
Property measured: pKd
Hey, just a heads up that pKd is the negative log base 10 of the concentration in molar.

# input Look up and state reported pKd for aptamer No. 1 (ssDNA) DNA: GGAATGTGGTCCCTCGCAATAAATCTATGTACGTTATTCCCCTTTGACCAATGCTGAAATGAGCCCTTTGACCCTGTAC
# output 6.75
